- Tested on: A549-CANX-COX4
- Assay info: phenotypically active (imaging signature differs from DMSO and reproducible) at any of 0.3-9 uM (binary (1 = active, 0 = inactive)); higher = active
- Setup conditions: treatment time: 24 h
Counter-ions that a name gives are not always drawn.
The compounds listed here are annotated with their phenotypically active.
Parameter measured: phenotypically active

>>> measured_value("C/C(O)=C(/C#N)C(=O)Nc1cc(Br)ccc1Br")
0
>>> measured_value("O=c1ccc2ccc3occc3c2o1")
0
>>> measured_value("CNC(=O)Oc1ccc2c(c1)[C@]1(C)CCN(C)O[C@@H]1N2C")
0
>>> measured_value("CCCCCOc1ccc(C(=O)c2cccc3ccccc23)c2ccccc12")
0
>>> measured_value("CN1[C@@H]2CC[C@H]1C[C@@H](OC(=O)C(CO)c1ccccc1)C2 (some centres not stated) [Atropine sulfate monohydrate]")
0
>>> measured_value("COc1ccc2c(c1)[C@]13CCCC[C@@H]1[C@H](C2)N(C)CC3")
0
>>> measured_value("C=C(C)[C@H]1Cc2c(ccc3c2O[C@@H]2COc4cc(OC)c(OC)cc4[C@@H]2C3=O)O1")
1
>>> measured_value("COc1ccc(C(=O)Cc2c(CCN(C)C)cc3c(c2OC)OCO3)c(C(=O)O)c1OC")
0
>>> measured_value("Nc1ccncc1")
0
>>> measured_value("C[C@]12CC[C@H](O)C[C@H]1CC[C@@H]1[C@@H]2CC[C@]2(C)[C@@H](C3=CC(=O)OC3)CC[C@]12O")
1
>>> measured_value("C=C[C@H]1C[N@@]2CC[C@H]1C[C@H]2[C@H](O)c1ccnc2ccccc12 [(-)-Cinchonidine]")
0
>>> measured_value("N[C@@H]1C[C@H]1c1ccccc1 [Tranylcypromine hydrochloride]")
0

====

- Tested on: WPMY1-CANX-COX4
- Assay info: lowest phenotypically active concentration; higher = less potent
- Setup conditions: treatment time: 24 h
Parameter measured: lowest phenotypically active concentration (µM)

>>> measured_value("N#CC(C#N)=NNc1ccc(OC(F)(F)F)cc1")
3
>>> measured_value("C[C@@]12C(=O)OC(=O)[C@]1(C)[C@H]1CC[C@@H]2O1")
9
>>> measured_value("COc1ccc(CCN2CCC(Nc3nc4ccccc4n3Cc3ccc(F)cc3)CC2)cc1")
3
>>> measured_value("CC[C@@H]1C=CC=CC[C@H](C)[C@@H](O)[C@](C)(O)C(=O)[C@H](C)[C@@H](O)[C@H](C)C(=O)[C@H](C)[C@@H](O)[C@H](C)C=CC(=O)O[C@H]2[C@@H](C)[C@@H](CC1)O[C@@]1(CC[C@@H](C)[C@@H](C[C@H](C)O)O1)[C@@H]2C")
1

====

- System: HepG2-GM130-SQSTM1
- Assay info: lowest phenotypically active concentration; higher = less potent
- Setup conditions: treatment time: 24 h
Counter-ions that a name gives are not always drawn.
Parameter measured: lowest phenotypically active concentration

>>> measured_value("COc1cc2c(c(OC)c1OC)-c1ccc(OC)c(=O)cc1[C@@H](NC(C)=O)CC2")
"≤ 0.3 µM"
>>> measured_value("C=C1[C@@H](O)C2C=CC[C@H](C)C(=O)[C@](C)(O)C=C[C@@H](OC(C)=O)[C@]23C(=O)N[C@H](Cc2ccccc2)[C@@H]3[C@@H]1C (some centres undefined)")
"≤ 0.3 µM"
>>> measured_value("COc1ccc2c(c1)/C(=C/c1c[nH]cn1)C(=O)N2")
"≤ 0.3 µM"
>>> measured_value("C[C@H]1CCCC=C[C@@H]2C[C@H](O)C[C@H]2[C@H](O)C=CC(=O)O1")
"≤ 0.3 µM"
>>> measured_value("COc1ccc(C[C@H]2NC[C@H](O)[C@H]2OC(C)=O)cc1")
"≤ 0.3 µM"
>>> measured_value("CC[C@@H]1C=CC=CC[C@H](C)[C@@H](O)[C@](C)(O)C(=O)[C@H](C)[C@@H](O)[C@H](C)C(=O)[C@H](C)[C@@H](O)[C@H](C)C=CC(=O)O[C@H]2[C@@H](C)[C@@H](CC1)O[C@@]1(CC[C@@H](C)[C@@H](C[C@H](C)O)O1)[C@@H]2C")
"≤ 0.3 µM"
>>> measured_value("C[C@]12CC[C@H]3[C@@H](CC[C@]4(O)C[C@@H](O)CC[C@]34C=O)[C@@]1(O)CC[C@@H]2C1=CC(=O)OC1")
"1 µM"
>>> measured_value("C=C(C)[C@H]1Cc2c(ccc3c2O[C@@H]2COc4cc(OC)c(OC)cc4[C@@H]2C3=O)O1")
"≤ 0.3 µM"
>>> measured_value("COC(=O)[C@@]1(O)C[C@H]2O[C@]1(C)n1c3ccccc3c3c4c(c5c6ccccc6n2c5c31)C(=O)NC4")
"≤ 0.3 µM"
>>> measured_value("C[C@@H]1O[C@@H](O[C@H]2C[C@@H](O)[C@]3(CO)[C@H]4[C@H](O)C[C@]5(C)[C@@H](C6=CC(=O)OC6)CC[C@]5(O)[C@@H]4CC[C@]3(O)C2)[C@H](O)[C@H](O)[C@H]1O [Strophantine octahydrate]")
"≤ 0.3 µM"
>>> measured_value("Cc1sc2c(c1C)C(c1ccc(Cl)cc1)=N[C@@H](CC(=O)OC(C)(C)C)c1nnc(C)n1-2")
"≤ 0.3 µM"
>>> measured_value("CC[C@H]1CN2CCc3cc(OC)c(OC)cc3[C@@H]2C[C@@H]1C[C@H]1NCCc2cc(OC)c(OC)cc21")
"≤ 0.3 µM"
>>> measured_value("COC1=CC(C)=C[C@@H](C)[C@@H](O)[C@@H](C)CC(C)=CC=C[C@H](OC)[C@@H]([C@@H](C)[C@@H](O)[C@H](C)[C@@]2(O)C[C@@H](O)[C@H](C)[C@@H](C(C)C)O2)OC1=O")
"3 µM"
>>> measured_value("O=C1NC(=S)N(c2cccc(Br)c2)C(=O)/C1=C/c1ccco1")
"9 µM"
>>> measured_value("C[C@]12CC[C@H](O)C[C@H]1CC[C@@H]1[C@@H]2C[C@@H](O)[C@]2(C)[C@@H](C3=CC(=O)OC3)CC[C@]12O")
"3 µM"
>>> measured_value("CN1C[C@H](C(=O)N[C@]2(C)O[C@@]3(O)[C@@H]4CCCN4C(=O)[C@H](Cc4ccccc4)N3C2=O)C[C@@H]2c3cccc4[nH]cc(c34)C[C@H]21.CN1C[C@H](C(=O)N[C@]2(C)O[C@@]3(O)[C@@H]4CCCN4C(=O)[C@H](Cc4ccccc4)N3C2=O)C[C@@H]2c3cccc4[nH]cc(c34)C[C@H]21 [dihydroergotamine]")
"9 µM"
>>> measured_value("N#Cc1c(Oc2cccc(OS(=O)(=O)CCCC(F)(F)F)c2)cccc1C(F)(F)F")
"9 µM"
>>> measured_value("CC(C)[C@@]1(NC(=O)[C@@H]2C[C@@H]3c4cccc5[nH]cc(c45)C[C@H]3N(C)C2)O[C@@]2(O)[C@@H]3CCCN3C(=O)[C@H](Cc3ccccc3)N2C1=O [Dihydroergocristine mesylate]")
"3 µM"
>>> measured_value("BrC1C(Br)C(Br)C(Br)C(Br)C1Br (centres undefined)")
"9 µM"

====

- Test system: A549-GM130-SQSTM1
- Assay info: phenotypically active (imaging signature differs from DMSO and reproducible) at any of 0.3-9 uM (binary (1 = active, 0 = inactive)); higher = active
- Setup conditions: treatment time: 24 h
Recorded phenotypically active, one value per entry.
Parameter measured: phenotypically active

>>> measured_value("CC1=C2[C@H]3OC(=O)[C@@H](C)[C@@H]3CC[C@@]2(C)C=CC1=O")
0
>>> measured_value("CC[N+](CC)(CCCNC1=CC(=O)C(NCCC[N+](CC)(CC)Cc2ccccc2)=CC1=O)Cc1ccccc1 [Benzoquinonium dibromide]")
0
>>> measured_value("C=C1[C@H]2C[C@@]3([C@@H]1O)[C@@H](C[C@@H]2O)[C@]12[C@@H]4C[C@H]3[C@H]1N(CC)C[C@]4(C)CC[C@@H]2O")
0
>>> measured_value("COc1cc2c(c(OC)c1OC)-c1ccc(OC)c(=O)cc1[C@@H](NC(C)=O)CC2")
1
>>> measured_value("CC(C)CC(N(C)C)C1(c2ccc(Cl)cc2)CCC1 (configuration not stated)")
0
>>> measured_value("C/C=C(/C)C(=O)O[C@H]1C(C)=C2[C@H]([C@@H]1OC(=O)CCCCCCC)[C@@](C)(OC(C)=O)C[C@H](OC(=O)CCC)[C@@]1(O)[C@H]2OC(=O)[C@@]1(C)O")
1
>>> measured_value("CCOC(=O)C1(c2ccccc2)CCN(C)CC1")
0
>>> measured_value("CCn1cnc2c(Nc3cccc(Cl)c3)nc(N[C@H]3CCCC[C@H]3N)nc21")
1
>>> measured_value("C=C1C/C(=C\\C)C(=O)O[C@@H]2CCN3CC=C(COC(=O)[C@]1(C)O)[C@H]23")
0
>>> measured_value("O=c1cccc2n1C[C@H]1CNC[C@H]2C1 [Cytisine nitrate hydrate]")
0
>>> measured_value("Fc1ccccc1C1=NCC(=S)N(CC(F)(F)F)c2ccc(Cl)cc21")
0
>>> measured_value("COC(=O)[C@@]1(O)C[C@H]2O[C@]1(C)n1c3ccccc3c3c4c(c5c6ccccc6n2c5c31)C(=O)NC4")
1
>>> measured_value("CN1C(=O)CN=C(c2ccccc2)c2cc(Cl)ccc21")
0
>>> measured_value("COc1ccc(OC)c(C(O)C(C)N)c1 (configuration not stated)")
0
>>> measured_value("C[C@@H](CO)NC(=O)[C@@H]1C=C2c3cccc4[nH]cc(c34)C[C@H]2N(C)C1")
1
>>> measured_value("COc1cc2c3cc1Oc1cc(ccc1O)C[C@@H]1c4c(cc(OC)c(O)c4Oc4cccc(c4)C[C@@H]3N(C)CC2)CC[N+]1(C)C [Tubocurarine chloride pentahydrate (+)]")
0
>>> measured_value("CC(C)C[C@H](CN)CC(=O)O")
0
>>> measured_value("BrC1C(Br)C(Br)C(Br)C(Br)C1Br (configuration not stated)")
0
>>> measured_value("Cc1c(C(=O)Nc2cccc(C(F)(F)F)c2)cc(-c2ccccc2)n1CCCN1CCOCC1")
1
>>> measured_value("C/C(O)=C(/C#N)C(=O)Nc1cc(Br)ccc1Br")
0
>>> measured_value("Cc1sc2c(c1C)C(c1ccc(Cl)cc1)=N[C@@H](CC(N)=O)c1nnc(C)n1-2")
1
>>> measured_value("CC1=CC(=O)C2=C(C)C[C@H](O)[C@@H]3[C@H](OC(=O)[C@H]3C)[C@@H]12 [Austricine hydrate]")
0

Just for reference, the supplement of paper PMC7411054 is where these values come from.
